molecular target: Ubiquitin carboxyl-terminal hydrolase 30 (Homo sapiens) (UniProt Q70CQ3); experiment: inhibitors of ubiquitin-specific protease 30 deubiquitylating enzyme, concentration dependence, in vitro biochemical, validation of primary hits (AID 1645865); details: purified USP30, Ub-rhodamine cleavage, fluorescence, 2 h
Sequence (Q70CQ3 whole entry, looked up): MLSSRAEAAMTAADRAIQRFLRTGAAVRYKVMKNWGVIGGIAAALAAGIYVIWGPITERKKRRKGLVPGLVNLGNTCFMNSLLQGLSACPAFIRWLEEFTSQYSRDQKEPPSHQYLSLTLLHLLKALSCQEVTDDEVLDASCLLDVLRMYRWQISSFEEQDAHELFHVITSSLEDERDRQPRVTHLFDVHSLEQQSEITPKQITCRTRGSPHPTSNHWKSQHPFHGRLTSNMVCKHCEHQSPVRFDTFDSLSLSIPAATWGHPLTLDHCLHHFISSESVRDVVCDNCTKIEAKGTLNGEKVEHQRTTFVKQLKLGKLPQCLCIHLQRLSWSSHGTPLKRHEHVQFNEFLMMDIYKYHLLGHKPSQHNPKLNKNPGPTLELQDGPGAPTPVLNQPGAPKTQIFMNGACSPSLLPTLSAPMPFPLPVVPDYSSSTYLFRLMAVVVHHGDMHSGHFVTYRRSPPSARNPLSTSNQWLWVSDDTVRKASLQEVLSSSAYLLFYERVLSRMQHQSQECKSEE
The source made the active and inactive calls.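 Rule for the calls: active = maximal inhibition of the USP30 enzyme reaching 30% or more across the dose series; inactive = the rest.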
measurement kind: IC50

Guide cases for IC50, answers given:
CC(=O)c1ccc(NC(=O)CC2C(=O)Nc3nc4ccccc4n32)cc1 (stereo not given) = 46.2 µM
COc1ccc(OC)c(NC(=O)Cn2c(=O)n(CC3CCC(C(=O)NCCc4ccccc4)CC3)c(=O)c3ccccc32)c1 (stereo not given) = 1.77 µM

Report IC50 for each item below.
1. COc1cccc2cc(C(=O)Nc3ccc4c(c3)OCCO4)oc12
2. COc1ccc2nc3c(cc2c1)c(=O)n(C)c1c3c(=O)n(-c2ccccc2)c(=O)n1-c1ccccc1
3. O=C1CN(C(=O)COC(=O)CCCN2C(=O)c3cccc4cccc(c34)C2=O)c2ccccc2N1
4. O=C(Cc1cc(-c2ccc(F)cc2)on1)NCc1ccccc1

Completion:
["> 50 µM (inactive)", "> 50 µM (inactive)", "> 50 µM (inactive)", "18.3 µM"]

---

molecular target: Ubiquitin carboxyl-terminal hydrolase 30 (Homo sapiens); experiment: inhibitors of ubiquitin-specific protease 30 deubiquitylating enzyme, concentration dependence, in vitro biochemical, validation of primary hits (AID 1645865); conditions: purified USP30, Ub-rhodamine cleavage, fluorescence, 2 h
Activity calls are given as the source filed them.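 Rule for the calls: active = maximal inhibition of the USP30 enzyme reaching 30% or more across the dose series; inactive = the rest.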
// allowed return values: yes = active, no = inactive

Worked set:
Clc1cccc(N2CCN(c3ncnc4nc[nH]c34)CC2)c1 = yes
Cc1ccc(-c2ccc(N3CCOCC3)nn2)cc1S(=O)(=O)N1CCOCC1 = no
COc1ccc(CC(=O)Nc2cccc(-c3nc4ncccc4o3)c2)cc1OC = no
O=C(Nc1cccc(OC(=O)c2ccc(Cl)cc2)c1)c1ccc(Cl)cc1 = yes
O=c1c(Nc2cccc(F)c2)nc2ccncc2n1Cc1ccccc1 = yes
Cc1ccc2[nH]c(=O)c(CN(CC3CCCO3)S(=O)(=O)c3ccccc3)cc2c1 (stereo not given) = yes
Nc1c(C(=O)c2cccs2)oc2nc(-c3ccccc3)cc(-c3ccco3)c12 = no
O=C1C/C(=C\c2cccc(Cl)c2)Cc2ccccc21 = no
CC(C)N(C(=O)Cn1c(=O)[nH]c2ccccc21)c1ccccc1 = no
Cc1ccc2nc(CNc3ccc(F)cc3C)cc(=O)n2c1 = no

Prompt: How was `COc1ccc(OC)c(-c2cc(C(=O)Nc3c(C)nn(Cc4ccccc4)c3C)no2)c1` classified in this test?
Completion: no

Prompt: What would you report for `COc1ccccc1C(=O)N1CCc2[nH]c3ccc(F)cc3c2C1` ?
Completion: no

Prompt: Try this molecule too: `Cc1nn(-c2ccccc2)c(C)c1C(=O)OCC(=O)Nc1cccc(C#N)c1`
Completion: no

Prompt: What do you have for `CCOc1ccc(NC(=O)Cn2cc(C(=O)c3ccc(Cl)cc3)c(=O)c3cc(OC)ccc32)cc1` ?
Completion: yes

Prompt: Entry `CC1=C(c2ccc(C)c(C)c2)S(=O)(=O)NC1=NCC(=O)NCCCc1ccccc1` please
Completion: yes

---

biological target: UniProtKB Q70CQ3; assay: inhibitors of ubiquitin-specific protease 30 deubiquitylating enzyme, concentration dependence, in vitro biochemical, validation of primary hits (AID 1645865); details: purified USP30, Ub-rhodamine cleavage, fluorescence, 2 h
Activity calls are given as the source filed them.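 Rule for the calls: active = maximal inhibition of the USP30 enzyme reaching 30% or more across the dose series; inactive = the rest.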
Classes to choose from: label 1 = active, label 0 = inactive

Worked set:
O=C(CCCCn1c(=O)c2ccccc2n(CC(=O)Nc2ccc(F)c(Cl)c2)c1=O)NCc1ccco1 = label 0
CC(=O)c1cccc(NC(=O)c2ccc(CN(c3ccc(C)c(C)c3)S(C)(=O)=O)cc2)c1 = label 0
CC(=O)c1ccc(Cc2ncc(C(F)(F)F)cc2Cl)s1 = label 0
Cc1cc(N2CCOCC2)nc2ccc(NC(=O)CCC(=O)Nc3ccc(F)cc3)cc12 = label 1
Cc1ccccc1OCCC(=O)Nc1cccc(S(=O)(=O)Nc2ccccc2Cl)c1 = label 0

Prompt: Please share the test call associated with `Fc1cccc(Cn2cc(-c3noc(-c4ccncc4)n3)nn2)c1` .
Completion: label 1

Prompt: Then what about the molecule CC(Nc1ncnc2c1sc1nc(N3CCOCC3)c3c(c12)CCC3)c1ccccc1 (configuration not stated) ?
Completion: label 1

Prompt: Check CCn1c(SCC(=O)N2c3ccccc3CC2C)nnc1-c1ccc2c(c1)OCCO2 (configuration not stated) too.
Completion: label 1

Prompt: Field entry: `NC(=O)c1nnn(-c2ccc(NC(=O)c3ccc(F)c(F)c3)cc2)n1`
Completion: label 1

Prompt: Also Cc1cc(C(F)(F)F)n2nc(C3CCN(C(=O)c4cnn(C)c4C)C3)cc2n1 (configuration not stated) , if possible.
Completion: label 0

Prompt: One more molecule: `O=C(Nc1ccc2ccccc2n1)c1ccc(Cl)cc1`
Completion: label 1

Prompt: Field entry: `Cc1cc(=O)n2c3c(c4c(cc13)c(CO)cc(=O)n4C)OC2`
Completion: label 0

Prompt: Moving on to `O=C(Nc1ccc2c(c1)OCCO2)Nc1nnc(CC(=O)N2CCCCC2)s1`
Completion: label 0

Prompt: Queued: `O=C(OCc1cccc(Cl)c1)c1ccc2ccccc2n1`
Completion: label 0

Prompt: Please give the result for `Cc1ccccc1Cn1ccc2ccn(Cc3cccnc3)c2c1=O` too.
Completion: label 0

Prompt: Let us now turn to Cc1cccc(NC(=O)CN2C(=O)CC(c3ccccc3)S(=O)(=O)c3ccccc32)c1C (configuration not stated)
Completion: label 1

Prompt: Also, `Cc1ccc(NC(=O)c2ccc3nn(CC(=O)Nc4ccc(F)cc4F)c(=O)n3c2)cc1` please.
Completion: label 1

Prompt: Next molecule: `CCN(CCCNC(=O)c1ccc(Cn2c(=O)[nH]c3ccccc3c2=O)cc1)c1ccccc1`
Completion: label 1

Prompt: // repeat for `COc1cccc(-n2nnc(C(=O)Nc3ccc(C)c(C)c3)c2C)c1` and report
Completion: label 0

Prompt: Now consider CC(c1ccccc1)n1c(-c2ccc(F)cc2)nc2c(c(=O)c3ccccc3n2C)c1=O (configuration not stated) .
Completion: label 1

Prompt: Same read-out for CN(C)S(=O)(=O)N1CCCC2(C1)Nc1cccnc1NC2=NC1CCCC1 (configuration not stated) ?
Completion: label 0

Prompt: Quick one: `COc1cc(Cl)ccc1Nc1ncc(C(=O)Nc2cc(OC)c(OC)c(OC)c2)c2ccccc12`
Completion: label 1

Prompt: Same lookup for `O=C(Nc1oc2ccccc2c(=O)c1-c1ccc2c(c1)OCO2)C1CCCCC1` , please.
Completion: label 1

---

target: Ubiquitin carboxyl-terminal hydrolase 30 (Homo sapiens) (UniProt Q70CQ3); assay: inhibitors of ubiquitin-specific protease 30 deubiquitylating enzyme, concentration dependence, in vitro biochemical, validation of primary hits (AID 1645865); settings: purified USP30, Ub-rhodamine cleavage, fluorescence, 2 h
Calls of active or inactive are those of the source.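 The calls were made as follows: active = maximal inhibition of the USP30 enzyme reaching 30% or more across the dose series; inactive = the rest.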
Write down the outcome that applies. Available outcomes: active, inactive

Use the examples below as a reference point.
O=C(CCCn1c(=O)c2ccccc2n(CC(=O)NCc2ccccc2Cl)c1=O)NCc1ccc2c(c1)OCO2 = active
CC1=C(C)C(N(c2ccccc2)c2ccccc2)N(CCC(C)C)C1=O (stereo not given) = active
COc1ccc(-c2cc3c(=O)n(CC(=O)Nc4ccccc4Cl)ccn3n2)cc1 = active

API: the following record is the query input.
Prompt: Per the records of this test, what outcome belongs to CC(=O)c1cccc(NC(=O)c2ccc3[nH]c4c(c3c2)CC(C)CC4)c1 (stereo not given) ?
Completion: inactive

---

molecular target: Ubiquitin carboxyl-terminal hydrolase 30 (Homo sapiens); assay: inhibitors of ubiquitin-specific protease 30 deubiquitylating enzyme, concentration dependence, in vitro biochemical, validation of primary hits (AID 1645865); details: purified USP30, Ub-rhodamine cleavage, fluorescence, 2 h
Active and inactive are the calls of the source.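 Rule for the calls: active = maximal inhibition of the USP30 enzyme reaching 30% or more across the dose series; inactive = the rest.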
// classify into active, inactive

Example results:
O=C(NCc1ccccc1Cl)c1ccc(-c2nnc(-c3ccccc3)o2)cc1 = active
Cc1cc(Cl)c2c(c1)[C@]1(C(=O)N2)N2CCC[C@H]2[C@@H](C(=O)c2cc3ccccc3o2)[C@]12C(=O)Nc1ccccc12 = inactive
COc1ccc(NC(=O)c2ccccc2OCC(=O)Nc2ccccc2C(F)(F)F)c(C)c1 = active
CC(=O)c1sc(NC(=O)/C=C/c2ccccc2)nc1-c1ccccc1 = active
Cc1cccc(C(=O)N2CCc3cc(-c4nc(NC(=O)CN5CCc6ccccc6C5)sc4C)ccc32)c1 = inactive
CC(C)CC(NC(=O)c1ccc(Cl)cc1Cl)c1nc2ccccc2[nH]1 (stereo not given) = inactive
CC1Oc2cc3c(-c4c(O)cc(O)c5c(O)c6c(cc45)OC(C)C(C)C6=O)c(O)cc(O)c3c(O)c2C(=O)C1C (stereo not given) = active
CN(C)CCc1cc2c(c3c1ccc1ccccc13)OCO2 = inactive
O=c1c2ccccc2oc2nc(-c3cccs3)n(-c3ccccc3)c(=O)c12 = active
N#Cc1ccc(Cn2nnc(-c3cccc(Cl)c3)n2)cc1 = inactive

Prompt: Assay outcome for `COc1cccc(N2CCN(C(=O)Nc3ccc4c(c3)NC(=O)CO4)CC2)c1` : what was it?
Completion: active

Prompt: Same for `Cc1ccc(OCCn2c(=N)n(C(C)C)c3ccccc32)cc1`
Completion: active

Prompt: Next entry: `COc1ccc(NC(=O)CC(=O)c2ccc([N+](=O)[O-])cc2)cc1S(=O)(=O)Nc1ccc(Br)cc1`
Completion: active

Prompt: Entry COc1ccc(C2SCC(=O)Nc3c2c(=O)[nH]n3C2CCCCCC2)cc1 (stereo not given) please
Completion: active

Prompt: Now try `O=C(COc1ccc(Cl)cc1Cl)Nc1ccccc1-c1nc2ccccc2[nH]1` .
Completion: active
